- test_target: cathepsin B (Homo sapiens, UniProt P07858)
- experiment_notes: cathepsin B enzyme assay
- Assay type: biochemical
- test_conditions: substrate concentration 200 μM
experimental_endpoint: pIC50
The value called pIC50 is obtained by taking minus log10 of the concentration in mol/L.

Fill in: pIC50 of CC/C=C/[C@H](CC)C/C(C)=C/[C@@]1(CC)C[C@](/C=C/C(=O)O)(CC)OO1 [plakortide E] is ___ 3.99
